Where these numbers come from: patent US20080103169A1

- PROTOCOL_DESCRIPTION: PPI half-life (serum concentration profile), n of 1 studies
- Format: in vivo, human
- RUN_CONDITIONS: human, serum, oral, 40 mg, Day 1; 40 mg given alone; n of 1
ASSAY_METRIC: half-life (h)
One number for each entry, in h.

*Q* Please look up its half-life: COc1ccc2[nH]c([S+]([O-])Cc3ncc(C)c(OC)c3C)nc2n1 (stereo not shown)
*A* 7

----------
- PROTOCOL_DESCRIPTION: PPI half-life (serum concentration profile), n of 1 studies
- Format: in vivo, human
- RUN_CONDITIONS: human, serum, oral, Day 1; given as OME-IR 120 mg+Tenatoprazole IR 40 mg+Cimetidine 200 mg; n of 1
ASSAY_METRIC: half-life (min)
Answers are plain numbers, in min.

COc1ccc2[nH]c([S+]([O-])Cc3ncc(C)c(OC)c3C)nc2n1 (centres unmarked) [tenatoprazole]; 774

Note: attention shifts to another entry.
*Q* Requested read-out: half-life. Entry: COc1ccc2[nH]c([S+]([O-])Cc3ncc(C)c(OC)c3C)nc2c1 (centres unmarked) [omeprazole]
*A* 108
